System: CCRIS mutagenicity, Ames/micronucleus/aberration tests
Experiment: CCRIS mutagenicity studies
Conditions: Test System: AMES SALMONELLA TYPHIMURIUM; Strain/Indicator: TA98; Metabolic Activation: RAT, LIVER, S-9, PHENOBARBITAL AND 5,6-BENZOFLAVONE; Method: SUSPENSION/PLATE
Activity calls are given as the source filed them. No rule for the calls is given here.
Parameter call: string, one of YES for active, NO for inactive

Q: What did the test return for Cc1ccc(NO)cc1[N+](=O)[O-] ?
Ans: NO

Q: I'd appreciate the recorded outcome for Cc1ccc(N=Nc2ccc(C)c(N)c2)cc1N from this test.
Ans: YES

Q: How did this test come out for CC(=O)N(C(C)=O)c1cc(N=Nc2ccc(C)cc2)ccc1C ?
Ans: NO

Q: What did this assay record as the result for Cc1ccc([N+](=O)[O-])cc1N=O ?
Ans: NO

Q: Called result for Cc1ccc(N=[N+]([O-])c2ccc(C)c([N+](=O)[O-])c2)cc1[N+](=O)[O-]
Ans: NO
